FYI, the data here is from patent US6166070A.

- PROTOCOL: solubility
- Type: physicochemical
- CONDITION DESCRIPTION: solvents in which soluble
READOUT: Solubility

[[record]]
compound = "CCC(C)C=C(C)C=CC(=O)CC1=C(c2cc(O)c(O)cc2C2=C(O)C(=Cc3ccc(O)c(O)c3)OC2=O)C(O)(C(C)=O)C(O)C1=O (stereo not shown) [Kodaistatin D]"
assay_value = "MeOH and DMSO"

[[record]]
compound = "CCC(C)C=C(C)C=CC(=O)CC1=C(c2cc(O)c(O)cc2C2=C(O)C(=Cc3ccc(O)cc3)OC2=O)C(O)(C(C)=O)C(O)C1=O (single isomer, unassigned) [Kodaistatin B]"
assay_value = "MeOH and DMSO"

[[record]]
compound = "CCC(C)C=C(C)C=CC(=O)CC1=C(c2cc(O)c(O)cc2C2=C(O)C(=Cc3ccc(O)c(O)c3)OC2=O)C(O)(C(C)=O)C(O)C1=O (stereo not shown) [Kodaistatin C]"
assay_value = "MeOH and DMSO"


----------
- TARGET UNDER TEST: rat liver microsomal glucose-6-phosphate translocase (Rattus norvegicus, UniProt F7EWB7)
- Construct: rat liver microsomal glucose-6-phosphate translocase; from tissue; host or cells: rat liver microsomes (untreated and Triton X-100 disrupted)
- Sequence (F7EWB7 1-429): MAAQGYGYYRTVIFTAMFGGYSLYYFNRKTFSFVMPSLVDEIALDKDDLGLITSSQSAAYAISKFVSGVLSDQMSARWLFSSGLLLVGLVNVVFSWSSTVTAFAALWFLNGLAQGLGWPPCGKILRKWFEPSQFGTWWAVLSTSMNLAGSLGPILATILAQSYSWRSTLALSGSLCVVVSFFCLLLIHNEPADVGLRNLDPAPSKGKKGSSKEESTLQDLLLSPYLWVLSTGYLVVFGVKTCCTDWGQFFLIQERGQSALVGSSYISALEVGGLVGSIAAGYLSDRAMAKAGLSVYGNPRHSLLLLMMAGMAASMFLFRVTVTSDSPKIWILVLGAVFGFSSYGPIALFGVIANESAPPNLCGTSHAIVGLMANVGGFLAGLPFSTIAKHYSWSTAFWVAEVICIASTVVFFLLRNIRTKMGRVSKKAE
- PROTOCOL: inhibition of rat liver microsomal glucose-6-phosphate translocase (colorimetric assay, untreated and Triton X-100 disrupted microsomes)
- Assay type: biochemical
- CONDITION DESCRIPTION: rat liver microsomes; read-out: approximate IC50, glucose-6-phosphate translocase (converted)
Overview of recorded IC50 for various molecules

Worked cases, IC50 given:
[[record]]
molecule = "CCC(C)C=C(C)C=CC(=O)CC1=C(c2cc(O)c(O)cc2C2=C(O)C(=Cc3ccc(O)cc3)OC2=O)C(O)(C(C)=O)C(O)C1=O (single isomer, unassigned)"
target_under_test = "rat liver microsomal glucose-6-phosphate translocase (Rattus norvegicus, UniProt F7EWB7)"
readout = "IC50"
assay_value = "~476 nM"

[[record]]
molecule = "CCC(C)C=C(C)C=CC(=O)CC1=C(c2cc(O)c(O)cc2C2=C(O)C(=Cc3ccc(O)c(O)c3)OC2=O)C(O)(C(C)=O)C(O)C1=O (stereo not shown) [Kodaistatin C]"
target_under_test = "rat liver microsomal glucose-6-phosphate translocase (Rattus norvegicus, UniProt F7EWB7)"
readout = "IC50"
assay_value = "~139 nM"

[[record]]
molecule = "CCC(C)/C=C(C)/C=C/C(=O)CC1=C(c2cc(O)c(O)cc2C2=C(O)/C(=C/c3ccc(O)cc3)OC2=O)C(O)(C(C)=O)C(O)C1=O (stereo not shown)"
target_under_test = "rat liver microsomal glucose-6-phosphate translocase (Rattus norvegicus, UniProt F7EWB7)"
readout = "IC50"
assay_value = "~317 nM"


Observed IC50 on rat liver microsomal glucose-6-phosphate translocase (Rattus norvegicus, UniProt F7EWB7) for CCC(C)C=C(C)C=CC(=O)CC1=C(c2cc(O)c(O)cc2C2=C(O)C(=Cc3ccc(O)c(O)c3)OC2=O)C(O)(C(C)=O)C(O)C1=O (stereo not shown) [Kodaistatin D] , please. ~773 nM
